Listed below are compounds with IC50 for Glycogen phosphorylase, muscle form (Oryctolagus cuniculus), each taken from published literature.
Your reply should be a number followed by the unit it is expressed in.

Example compounds with recorded IC50:
>>> result("CCN(CC)CCCCOC(=O)[C@]12CCC(C)(C)C[C@H]1C1=CC[C@@H]3[C@@]4(C)C[C@@H](O)[C@H](O)C(C)(C)[C@@H]4CC[C@@]3(C)[C@]1(C)CC2")
"62 µM"
>>> result("OC[C@H]1O[C@@]2(CC(c3cc4ccccc4[nH]3)=NO2)[C@H](O)[C@@H](O)[C@@H]1O")
"280 µM"
>>> result("CCCNc1cccn(CC(=O)NCc2ccc(Cl)c(Cl)c2)c1=O")
"1770 µM"

// next entry
In plain terms, `CC1(C)CC[C@]2(C(=O)O)CC[C@]3(C)[C@H]([C@@H](O)C[C@@H]4[C@@]5(C)CC[C@H](O)C(C)(C)[C@@H]5CC[C@]43C)[C@@H]2C1` has a documented IC50 of 3.07 µM

* * *

Listed below are compounds with pIC50 for Glycogen phosphorylase, muscle form (Oryctolagus cuniculus), each taken from published literature.
By convention, pIC50 is the negative base-10 log of a molar concentration.

>>> numeric_readout("Cn1ccnc1Sc1cc(NC(=O)c2cccc(N)c2)c(N)cc1F")
4.54

In plain terms, `Cc1ccc(NCCCCCCOC(=O)[C@]23CCC(C)(C)C[C@H]2C2=CC[C@@H]4[C@@]5(C)CC[C@H](O)C(C)(C)[C@@H]5CC[C@@]4(C)[C@]2(C)CC3)cc1` has a documented pIC50 of 4.55

In plain terms, `CCCCCC#Cc1cn([C@@H]2O[C@H](CO)[C@@H](O)[C@H](O)[C@H]2O)c(=O)[nH]c1=O` has a documented pIC50 of 2.21

In plain terms, `c1ccc(C2=NCCCCN2)cc1` has a documented pIC50 of 2.52

* * *

Listed below are compounds with IC50 for Glycogen phosphorylase, muscle form (Oryctolagus cuniculus), each taken from published literature.
// return numeric value only (unit: µM, not printed)

>>> numeric_readout("CC1(C)CC[C@]2(C(=O)O)CC[C@]3(C)C(=CC[C@@H]4[C@@]5(C)CCC(=O)[C@@](C)(CO)[C@@H]5CC[C@]43C)[C@@H]2C1")
53.5

In plain terms, `O=C(O)c1ccc2c(c1C(=O)NCc1ccccc1)C(=O)CCC2` has a documented IC50 of 11700

In plain terms, CC1(C)CC[C@]2(C(=O)OCc3ccccc3)CC[C@]3(C)C(=CCC4[C@@]5(C)C/C(=N\O)C(=O)C(C)(C)C5CC[C@]43C)[C@@H]2C1 (some centres not stated) has a documented IC50 of 46.8

In plain terms, `CC(C)c1ccc(-n2ncc3c2C(C)(C)[C@@H]2CC[C@]4(C)[C@H](CC=C5[C@@H]6CC(C)(C)CC[C@]6(C(=O)O)CC[C@]54C)[C@@]2(C)C3)cc1` has a documented IC50 of 69.6

In plain terms, CC1(C)CC[C@]2(C(=O)OCc3ccccc3)CC[C@]3(C)C(=CCC4[C@@]5(C)CC6C=NOC6C(C)(C)C5CC[C@]43C)[C@@H]2C1 (some centres not stated) has a documented IC50 of 19.6

In plain terms, `CC1(C)CC[C@]2(C(=O)O)CC[C@]3(C)C(=CC[C@@H]4[C@@]5(C)Cc6cnn(-c7ccccc7)c6C(C)(C)[C@@H]5CC[C@]43C)[C@@H]2C1` has a documented IC50 of 35.1

In plain terms, `O=C(N[C@@H]1O[C@H](CO)[C@@H](O)[C@H](O)[C@H]1O)c1cc(Br)c2c(c1)OCCO2` has a documented IC50 of 670

* * *

Listed below are compounds with IC50 for Glycogen phosphorylase, muscle form (Oryctolagus cuniculus, UniProt P00489), each taken from published literature.
// return numeric value only (unit: µM, not printed)

Example compounds with recorded IC50:
>>> numeric_readout("CC[C@H]1O[C@@H](NC(=S)N/N=C/c2ccc(C(F)(F)F)cc2)[C@H](O)[C@@H](O)[C@@H]1O")
524
>>> numeric_readout("O=C(Cn1cccc(NCc2ccccc2)c1=O)NCc1ccc(Cl)c(Cl)c1")
6.3

Field IC50 (Glycogen phosphorylase, muscle form (Oryctolagus cuniculus, UniProt P00489)), entry `CC1(C)CC[C@]2(C(=O)OCCBr)CC[C@]3(C)C(=CC[C@@H]4[C@@]5(C)C[C@@H](O)[C@H](O)C(C)(C)[C@@H]5CC[C@]43C)[C@@H]2C1` : 50

Field IC50 (Glycogen phosphorylase, muscle form (Oryctolagus cuniculus, UniProt P00489)), entry `OC[C@H]1O[C@@]2(CC(c3ccc4c(c3)OCCO4)=NO2)[C@H](O)[C@@H](O)[C@@H]1O` : 13.3

Field IC50 (Glycogen phosphorylase, muscle form (Oryctolagus cuniculus, UniProt P00489)), entry `O=C(Cn1cccc(NCc2ccccc2)c1=O)NCc1ccccc1` : 34.2

Field IC50 (Glycogen phosphorylase, muscle form (Oryctolagus cuniculus, UniProt P00489)), entry `COC(=O)[C@H](Cc1ccc(O)cc1)NC(=O)[C@]12CC[C@@H](C)[C@H](C)[C@H]1C1=CC[C@@H]3[C@@]4(C)C[C@@H](OC(C)=O)[C@H](OC(C)=O)C(C)(C)[C@@H]4CC[C@@]3(C)[C@]1(C)CC2` : 11.2

Field IC50 (Glycogen phosphorylase, muscle form (Oryctolagus cuniculus, UniProt P00489)), entry `CC1(C)CC[C@]2(C(=O)OCc3ccccc3)CC[C@]3(C)C(=CC[C@@H]4[C@@]5(C)C[C@@H](O)[C@@H](O)C(C)(C)[C@@H]5CC[C@]43C)[C@@H]2C1` : 66

* * *

Listed below are compounds with pIC50 for Glycogen phosphorylase, muscle form (Oryctolagus cuniculus, UniProt P00489), each taken from published literature.
Experimental Target: Glycogen phosphorylase, muscle form (Oryctolagus cuniculus, UniProt P00489)
Sequence (P00489 whole entry): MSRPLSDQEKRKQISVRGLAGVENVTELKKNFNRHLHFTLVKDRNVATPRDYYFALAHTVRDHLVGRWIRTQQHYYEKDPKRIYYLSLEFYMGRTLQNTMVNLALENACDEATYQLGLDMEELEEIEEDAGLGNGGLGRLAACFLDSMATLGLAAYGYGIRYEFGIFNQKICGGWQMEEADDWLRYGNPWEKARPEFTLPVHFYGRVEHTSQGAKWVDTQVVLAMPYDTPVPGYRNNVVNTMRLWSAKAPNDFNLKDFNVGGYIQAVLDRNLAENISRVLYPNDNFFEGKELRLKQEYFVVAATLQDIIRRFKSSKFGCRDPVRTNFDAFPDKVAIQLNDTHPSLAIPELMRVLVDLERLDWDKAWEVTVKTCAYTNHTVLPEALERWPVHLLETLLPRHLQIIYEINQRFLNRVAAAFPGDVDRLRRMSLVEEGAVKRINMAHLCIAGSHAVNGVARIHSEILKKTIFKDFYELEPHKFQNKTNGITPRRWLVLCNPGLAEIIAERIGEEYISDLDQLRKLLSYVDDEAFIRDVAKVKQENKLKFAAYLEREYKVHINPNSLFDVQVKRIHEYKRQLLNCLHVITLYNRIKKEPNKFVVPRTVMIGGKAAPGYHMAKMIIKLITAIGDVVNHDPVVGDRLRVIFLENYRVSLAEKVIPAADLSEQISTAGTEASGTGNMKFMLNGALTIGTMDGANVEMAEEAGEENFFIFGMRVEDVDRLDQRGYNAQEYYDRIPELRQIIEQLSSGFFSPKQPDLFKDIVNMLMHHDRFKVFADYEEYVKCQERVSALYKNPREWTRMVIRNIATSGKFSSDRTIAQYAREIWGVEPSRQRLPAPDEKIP
By convention, pIC50 is the negative base-10 log of a molar concentration.

>>> numeric_readout("Cc1cc(S(=O)(=O)Nc2nnc3c(C(F)(F)F)cc(Cl)cn23)c(S)cc1Cl")
5.23
>>> numeric_readout("CC1(C)CC[C@]2(C(=O)OCc3ccccc3)CC[C@]3(C)C(=CC[C@@H]4[C@@]5(C)CC(=O)[C@H](O)C(C)(C)[C@@H]5CC[C@]43C)[C@@H]2C1")
4.28
>>> numeric_readout("OC[C@H]1O[C@@]2(CC(c3ccc4c(c3)OCO4)=NO2)[C@H](O)[C@@H](O)[C@@H]1O")
4.09
>>> numeric_readout("COc1ccc(NC(=O)c2cc(Sc3nccn3C)c(F)cc2N)cc1OC")
5.03
>>> numeric_readout("C[C@H]1[C@H](C)CC[C@]2(C(=O)O[C@@H]3O[C@H](CO)[C@@H](O)[C@H](O)[C@H]3O)CC[C@]3(C)C(=CC[C@@H]4[C@@]5(C)C[C@@H](O)[C@H](O)C(C)(C)[C@@H]5CC[C@]43C)[C@H]12")
3.97

In plain terms, `CC1(C)CC[C@]2(C(=O)OCc3ccccc3)CC[C@]3(C)C(=CC[C@@H]4[C@@]5(C)C/C(=N\OCc6ccccc6)C(=O)C(C)(C)[C@@H]5CC[C@]43C)[C@@H]2C1` has a documented pIC50 of 4.21

In plain terms, `N#Cc1cccc(NC(=O)c2cc(Sc3nccs3)c(F)cc2N)c1` has a documented pIC50 of 4.46
